assay: Cytotoxicity assay (AlamarBlue) in mock infected MT-2 cells; assay type: cell-based; details: human
The entries below come with measured CC50 at 96 h values attached.
Field format: number, assumed µM, no unit text.

Consider the following illustrative entries.
{"columns": ["MOLECULE", "UNIT_ANNOTATION", "REPORTED"],
 "data": [
  ["COc1cc2c(cc1OCc1ccccc1)CCNC2/C=C/c1cc(C)c(OC)c(C(F)(F)F)c1 (stereo not drawn)", "µM", 4],
  ["COc1cc2c(cc1OCc1ccccc1)CCNC2/C=C/c1cc(OCC(C)(C)C)c(OC)cc1C (stereo not drawn)", "µM", 3.4],
  ["COc1cc(F)c(/C=C/C2NCCc3cc(OCc4ccccc4)c(OC)cc32)c(F)c1 (stereo not drawn)", "µM", 10.6],
  ["COc1cc2c(cc1OCc1ccccc1)CCNC2/C=C/c1ccc2c(c1)CCO2 (stereo not drawn)", "µM", 20.4]
]}

Returns the measured CC50 at 96 h for the input molecule. Input: COc1cc(Cl)c(/C=C/C2NCCc3cc(OCc4ccccc4)c(OC)cc32)cc1OCc1ccccc1 (stereo not drawn)
1.9

Returns the measured CC50 at 96 h for the input molecule. Input: COc1cc2c(cc1OCc1ccccc1)CCNC2/C=C/c1ccccc1C(=O)O (stereo not drawn)
10

Returns the measured CC50 at 96 h for the input molecule. Input: COc1cc2c(cc1OCc1ccccc1)CCNC2/C=C/c1ccc(-c2cccnc2)cc1 (stereo not drawn)
5.86

Returns the measured CC50 at 96 h for the input molecule. Input: COc1cc2c(cc1OCc1ccccc1)CCNC2/C=C/c1cc(OC)c(OC)c(OC)c1 (stereo not drawn)
6

Returns the measured CC50 at 96 h for the input molecule. Input: CCn1cc(/C=C/C2NCCc3cc(OCc4ccccc4)c(OC)cc32)cn1 (stereo not drawn)
24.2

----------
assay: Cytotoxicity assay (AlamarBlue) in mock infected MT-2 cells; type: cell-based; details: human; mock infected MT-2 cells, 96 hours, AlamarBlue; read-out: CC50
Labelling field: enter True if recorded CC50 at 96 h is less than 5 µM. Enter False if it equals or exceeds that cut-off.

{"columns": ["COMPOUND", "GROUP"],
 "data": [
  ["COc1cccc(/C=C/C2NCCc3cc(OCc4ccccc4)c(OC)cc32)c1 (stereo not drawn)", "False"],
  ["COc1cc(/C=C/C2NCCc3cc(OCc4ccccc4)c(OC)cc32)ccn1 (stereo not drawn)", "True"],
  ["COc1ccc(OC)c(/C=C/C2NCCc3cc(OCc4ccccc4)c(OC)cc32)c1 (stereo not drawn)", "True"],
  ["COc1cc2c(cc1OCc1ccccc1)CCNC2/C=C/c1ccc(F)cc1C (stereo not drawn)", "False"],
  ["COc1ccc(/C=C/C2NCCc3cc(OCc4ccccc4)c(OC)cc32)cc1Br (stereo not drawn)", "False"]
]}

Say whether its CC50 at 96 h is strictly beneath 5 µM. Entry: COc1cc(C)c(/C=C/C2c3cc(OC)c(OCc4ccccc4)cc3CCN2C(N)=O)cc1OCc1ccccc1 (stereo not drawn)
False

Say whether its CC50 at 96 h is strictly beneath 5 µM. Entry: COc1ccc(/C=C/C2NCCc3cc(OCc4ccccc4)c(OC)cc32)cn1 (stereo not drawn)
False

Say whether its CC50 at 96 h is strictly beneath 5 µM. Entry: COc1cc2c(cc1OCc1ccccc1)CCNC2/C=C/c1ccccc1C (stereo not drawn)
True

Say whether its CC50 at 96 h is strictly beneath 5 µM. Entry: COc1cc2c(cc1OCc1ccccc1)CCNC2/C=C/c1ccncc1 (stereo not drawn)
False

Say whether its CC50 at 96 h is strictly beneath 5 µM. Entry: COc1cc2c(cc1OCc1ccccc1)CCNC2/C=C/c1cc(OC)c(OCc2ccccc2)c(OC)c1 (stereo not drawn)
True

Say whether its CC50 at 96 h is strictly beneath 5 µM. Entry: COc1ccc(/C=C/C2NCCc3cc(OCc4ccccc4)c(OC)cc32)cc1OCc1ccccc1 (stereo not drawn)
True

Say whether its CC50 at 96 h is strictly beneath 5 µM. Entry: COc1cc(OC)c(OC)cc1/C=C/C1NCCc2cc(OCc3ccccc3)c(OC)cc21 (stereo not drawn)
True
